Reference source: patent US9810690B2

- TARGET: KRAS H95C/G12D (Homo sapiens, UniProt P01116, G12D/H95C)
- Construct: made in house
- METHOD_SUMMARY: Covalent modification of KRAS mutant by competition probes (TOF mass spectrometry, Agilent RapidFire)
- Format: binding
- RECORDED_CONDITIONS: probe 30 μM
READOUT_KIND: % Covalent Modification with Indicated Protein at 6 hr, H95C/G12D (%)

INSERT INTO results (compound, test_result) VALUES
  ('C=CS(=O)(=O)N1CCC(Nc2nc(N3CCN(C(C)=O)CC3)c3cc(Cl)c(-c4c(O)cccc4F)c(F)c3n2)CC1', 12);

P = C=CS(=O)(=O)NC1CCCN(c2nc(N3CCN(C(C)=O)CC3)c3cc(Cl)c(-c4c(O)cccc4F)c(F)c3n2)C1 (stereo not shown)
Q = C=CC(=O)N1CCC(Nc2nc(N3CCN(C(C)=O)CC3)c3cc(Cl)c(-c4c(O)cccc4F)c(F)c3n2)C1 (stereo not shown)
R = C=CS(=O)(=O)NC1CCN(c2nc(N3CCN(C(C)=O)CC3)c3cc(Cl)c(-c4c(O)cccc4F)c(F)c3n2)C1 (stereo not shown)
Qu. Put the entries in order of % Covalent Modification with Indicated Protein at 6 hr, H95C/G12D, starting with the largest number. The reply should contain the labels ordered as requested.
Ans. P, R, Q
(P: 60%, R: 12%, Q: 4%)
